I'd appreciate it if you could supply melting point values for the items below.

Give recorded melting point. COc1ccc(-c2c(C(N)=O)c3n(c2C2CC2)CCN(C(=O)NC24CC5CC(CC2C5)C4)C3)cc1 [Compound 53]
216 to 219 °C

Give recorded melting point. N#Cc1cccc(-c2c(C(N)=O)c3n(c2Cl)CCN(C(=O)NC2CCOCC2)C3)c1 [Compound 95]
236 to 238 °C

Give recorded melting point. CC(C)(C)NC(=O)N1CCn2c(c(C(N)=O)c(-c3ccc(Oc4ccccc4)cc3)c2C2CC2)C1 [Compound 39]
157 to 159 °C

Give recorded melting point. NC(=O)c1c(-c2cccc(C(F)(F)F)c2)c(Cl)n2c1CN(C(=O)NC1CCOCC1)CC2 [Compound 96]
220 to 222 °C

---

I'd appreciate it if you could supply IC50 values for the items below.
Numbers only here, please. The scale is nM.

Send back casein kinase 1 epsilon (CK1 epsilon) (Homo sapiens (Human)) IC50 of CC(C)(C)NC(=O)N1CCn2c(c(C(N)=O)c(-c3cccc(-n4cccn4)c3)c2C2CC2)C1 only.
23

Send back casein kinase 1 epsilon (CK1 epsilon) (Homo sapiens (Human)) IC50 of Cc1ccc(-c2c(C(N)=O)c3n(c2C2CC2)CCN(C(=O)NC(C)(C)C)C3)cc1 only.
12

Send back casein kinase 1 epsilon (CK1 epsilon) (Homo sapiens (Human)) IC50 of NC(=O)c1c(-c2cccc(C(F)(F)F)c2)c(Cl)n2c1CN(C(=O)NC1CCOCC1)CC2 only.
19

Send back casein kinase 1 epsilon (CK1 epsilon) (Homo sapiens (Human)) IC50 of C[C@H](NC(=O)N1CCn2c(C#N)c(-c3cccc(F)c3)c(C(N)=O)c2C1)C(F)(F)F only.
2

---

MEASURED_QUANTITY: melting point

Give recorded melting point. CC(C)(C)NC(=O)N1CCn2c(Cl)c(-c3cccc(F)c3)c(C(N)=O)c2C1
196 to 198 °C

Give recorded melting point. NC(=O)c1c(-c2cccc(OC(F)(F)F)c2)c(Cl)n2c1CN(C(=O)NC1CCOCC1)CC2
203 to 205 °C

Give recorded melting point. CC(C)(C)NC(=O)N1CCn2c(Br)c(-c3cccc(F)c3)c(C(N)=O)c2C1
184 to 189 °C

Give recorded melting point. CC(C)(C)NC(=O)N1CCn2c(c(C(N)=O)c(-c3ccc(F)cc3)c2C2CC2)C1
220 to 223 °C

Give recorded melting point. CC(C)(NC(=O)N1CCn2c(C#N)c(-c3cccc(F)c3)c(C(N)=O)c2C1)C(F)(F)F
202 to 204 °C

Give recorded melting point. CC(C)(C)NC(=O)N1CCn2c(Cl)c(-c3cccc(C#N)c3)c(C(N)=O)c2C1
192 to 195 °C

Give recorded melting point. COc1ccc(-c2c(C(N)=O)c3n(c2C2CC2)CCN(C(=O)NC2(C4CC4)CC2)C3)cc1
175 to 177 °C

Give recorded melting point. COc1ccc(-c2cn3c(c2C(N)=O)CN(C(=O)NC(C)(C)C)CC3)cc1
197 to 198 °C

Give recorded melting point. Cc1cccc(-c2c(C(N)=O)c3n(c2Cl)CCN(C(=O)NC2CCOCC2)C3)c1
231 to 234 °C

Give recorded melting point. CC(C)(NC(=O)N1CCn2c(Cl)c(-c3cccc(F)c3)c(C(N)=O)c2C1)C(F)(F)F
183 to 187 °C

Give recorded melting point. NC(=O)c1c(-c2cccc(F)c2)c(Cl)n2c1CN(C(=O)NCCC(F)(F)F)CC2
119 to 124 °C

Give recorded melting point. N#Cc1c(-c2cccc(F)c2)c(C(N)=O)c2n1CCN(C(=O)NC1CCOCC1)C2
232 to 234 °C

Give recorded melting point. NC(=O)c1c(-c2cccc(F)c2)c(Cl)n2c1CN(C(=O)NC1CCC(F)(F)CC1)CC2
212 to 214 °C

Give recorded melting point. NC(=O)c1c(-c2cccc(F)c2)c(Cl)n2c1CN(C(=O)NC1CCOCC1)CC2
223 to 225 °C

Give recorded melting point. CC(C)CCNC(=O)N1CCn2c(Cl)c(-c3ccccc3)c(C(N)=O)c2C1
154 to 155 °C

Give recorded melting point. NC(=O)c1c(-c2cccc(F)c2)c(Cl)n2c1CN(C(=O)NC1COC1)CC2
184 to 186 °C

Give recorded melting point. COc1ccc(-c2c(C(N)=O)c3n(c2Cl)CCN(C(=O)NC(C)(C)C)C3)cc1
168 to 170 °C

Give recorded melting point. COc1ccc(-c2c(C(N)=O)c3n(c2C2CC2)CCN(C(=O)NC2CCOCC2)C3)cc1
176 to 177 °C

Give recorded melting point. NC(=O)c1c(-c2ccccc2)c(Cl)n2c1CN(C(=O)NC1CCCCC1)CC2
208 to 209 °C

Give recorded melting point. COc1ccc(-c2c(C(N)=O)c3n(c2C2CC2)CCN(C(=O)NC(C)(C)C)C3)cc1
177 to 179 °C

Give recorded melting point. C[C@H](NC(=O)N1CCn2c(C#N)c(-c3cccc(F)c3)c(C(N)=O)c2C1)C(F)(F)F
176 to 178 °C

Give recorded melting point. CC(C)(CO)CNC(=O)N1CCn2c(Cl)c(-c3cccc(F)c3)c(C(N)=O)c2C1
205 to 207 °C

Give recorded melting point. N#Cc1c(-c2cccc(F)c2)c(C(N)=O)c2n1CCN(C(=O)NCCCC(F)(F)F)C2
169 to 171 °C

Give recorded melting point. CC1(C)CC(NC(=O)N2CCn3c(Cl)c(-c4cccc(F)c4)c(C(N)=O)c3C2)CCO1 (centres unmarked)
141 to 143 °C

Give recorded melting point. CC1(CNC(=O)N2CCn3c(Cl)c(-c4cccc(F)c4)c(C(N)=O)c3C2)COC1
249 to 253 °C

Give recorded melting point. CC(C)(C)NC(=O)N1CCn2c(F)c(-c3ccccc3)c(C(N)=O)c2C1
213 to 215 °C

Give recorded melting point. CC(C)(C)NC(=O)N1CCn2c(c(C(N)=O)c(-c3ccc(OCc4ccccc4)cc3)c2C2CC2)C1
203 to 206 °C

Give recorded melting point. CC(C)(C)NC(=O)N1CCn2c(c(C(N)=O)c(-c3cccc(OCc4ccccc4)c3)c2C2CC2)C1
156 to 158 °C

Give recorded melting point. NC(=O)c1c(-c2ccccc2)c(Cl)n2c1CN(C(=O)NC1CCOC1)CC2 (centres unmarked)
181 to 185 °C

Give recorded melting point. CC(C)(CO)CNC(=O)N1CCn2c(Cl)c(-c3cccc(C(F)(F)F)c3)c(C(N)=O)c2C1
185 to 187 °C

Give recorded melting point. NC(=O)c1c(-c2ccccc2)c(Cl)n2c1CN(C(=O)NCC(F)(F)F)CC2
210 to 213 °C

Give recorded melting point. C[C@H](NC(=O)N1CCn2c(Cl)c(-c3cccc(F)c3)c(C(N)=O)c2C1)C(F)(F)F
190 to 193 °C

---

I'd appreciate it if you could supply IC50 values for the items below.
Numbers only here, please. The scale is µM.

Send back casein kinase 1 epsilon (CK1 epsilon) (Homo sapiens (Human), UniProt P49674) IC50 of NC(=O)c1c(-c2cccc(OC(F)(F)F)c2)c(Cl)n2c1CN(C(=O)NC1CCOCC1)CC2 only.
0.122

Send back casein kinase 1 epsilon (CK1 epsilon) (Homo sapiens (Human), UniProt P49674) IC50 of NC(=O)c1c(-c2cccc(F)c2)c(Cl)n2c1CN(C(=O)NC1CCC(O)(C(F)(F)F)CC1)CC2 (stereo not shown) only.
0.002

Send back casein kinase 1 epsilon (CK1 epsilon) (Homo sapiens (Human), UniProt P49674) IC50 of CC(C)(C)NC(=O)N1CCn2c(c(C(N)=O)c(-c3ccc(C(=O)N4CCCC4)cc3)c2C2CC2)C1 only.
0.587

---

molecular target: casein kinase 1 epsilon (CK1 epsilon) (Homo sapiens (Human))
Sequence (P49674 whole entry): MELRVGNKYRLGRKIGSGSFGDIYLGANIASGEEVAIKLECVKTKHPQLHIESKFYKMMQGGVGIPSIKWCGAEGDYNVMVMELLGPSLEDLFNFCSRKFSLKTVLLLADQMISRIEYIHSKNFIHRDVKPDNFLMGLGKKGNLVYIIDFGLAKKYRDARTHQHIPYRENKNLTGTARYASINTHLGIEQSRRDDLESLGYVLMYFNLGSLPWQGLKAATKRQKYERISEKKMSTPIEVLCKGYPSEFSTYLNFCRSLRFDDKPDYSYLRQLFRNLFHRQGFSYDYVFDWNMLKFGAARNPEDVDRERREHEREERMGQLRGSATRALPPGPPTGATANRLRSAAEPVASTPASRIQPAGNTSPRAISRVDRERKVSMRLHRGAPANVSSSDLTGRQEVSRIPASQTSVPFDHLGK
I'd appreciate it if you could supply IC50 values for the items below.
Numbers only here, please. The scale is µM.

Send back casein kinase 1 epsilon (CK1 epsilon) (Homo sapiens (Human)) IC50 of N#Cc1cccc(-c2c(C(N)=O)c3n(c2Cl)CCN(C(=O)NC2CCOCC2)C3)c1 only.
0.006

Send back casein kinase 1 epsilon (CK1 epsilon) (Homo sapiens (Human)) IC50 of CC(C)(C)NC(=O)N1CCn2c(c(C(N)=O)c(-c3ccc(C(=O)NC4CC4)cc3)c2C2CC2)C1 only.
0.963

Send back casein kinase 1 epsilon (CK1 epsilon) (Homo sapiens (Human)) IC50 of CC(C)(C)CC(C)(C)NC(=O)N1CCn2c(c(C(N)=O)c(-c3ccccc3)c2C2CC2)C1 only.
0.045

Send back casein kinase 1 epsilon (CK1 epsilon) (Homo sapiens (Human)) IC50 of CC(C)(C)NC(=O)N1CCn2c(c(C(N)=O)c(-c3ccc(OCC4CC4)cc3)c2C2CC2)C1 only.
0.062

Send back casein kinase 1 epsilon (CK1 epsilon) (Homo sapiens (Human)) IC50 of CC(C)(C)NC(=O)N1CCn2c(c(C(N)=O)c(-c3ccc(OCc4ccccc4)cc3)c2C2CC2)C1 only.
0.038

Send back casein kinase 1 epsilon (CK1 epsilon) (Homo sapiens (Human)) IC50 of CC(C)(C)NC(=O)N1CCn2c(c(C(N)=O)c(-c3ccc(N4CCOCC4)cc3)c2C2CC2)C1 only.
0.331

Send back casein kinase 1 epsilon (CK1 epsilon) (Homo sapiens (Human)) IC50 of CC(C)(C)NC(=O)N1CCn2c(c(C(N)=O)c(-c3cccc(OCc4ccccc4)c3)c2C2CC2)C1 only.
0.315
